Provenance of the data: the supplement of paper PMC10567573

Listing: protein stability index of selected variants
B1: DLC1 (parent)
chain: KRSWEEHVTHWMGQPFNSDDRNTA

- Variants of: B1
- PROCEDURE_DETAILS: protein stability index of a GFP-peptide fusion (GPS, HEK-293T) (PSI 1-6); higher = more stable;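 also: lentivirally expressed fusions sorted by FACS into six bins by GFP to DsRed ratio, PSI derived from sequencing read proportions per bin multiplied by bin number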
- DETAILS: c terminus: a fixed tail appended
Enter the number alone.

change=T23F metric="protein stability index" value_measured=2.13
change=D20C metric="protein stability index" value_measured=2.19
change=E6F metric="protein stability index" value_measured=2.27
change=H10W metric="protein stability index" value_measured=2.31
change=W11F metric="protein stability index" value_measured=2.7

Input line: Quick check: protein stability index of H7E ?
Output line: 3.1

Input line: Quick check: protein stability index of S18G ?
Output line: 2.76

Input line: Quick check: protein stability index of N17I ?
Output line: 2.38

Input line: Quick check: protein stability index of D20R ?
Output line: 2.66

Input line: Quick check: protein stability index of E6M ?
Output line: 2.66

Input line: Quick check: protein stability index of H7I ?
Output line: 3.75

Input line: Quick check: protein stability index of Q14N ?
Output line: 2.75

Input line: Quick check: protein stability index of G13W ?
Output line: 1.95
